Target: Vascular endothelial growth factor receptor 3 (Homo sapiens) (UniProt P35916);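 note: mean FLT4 inhibition, averaged across replicates, from the GSK PKIS kinase inhibitor screen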
Sequence (P35916 whole entry): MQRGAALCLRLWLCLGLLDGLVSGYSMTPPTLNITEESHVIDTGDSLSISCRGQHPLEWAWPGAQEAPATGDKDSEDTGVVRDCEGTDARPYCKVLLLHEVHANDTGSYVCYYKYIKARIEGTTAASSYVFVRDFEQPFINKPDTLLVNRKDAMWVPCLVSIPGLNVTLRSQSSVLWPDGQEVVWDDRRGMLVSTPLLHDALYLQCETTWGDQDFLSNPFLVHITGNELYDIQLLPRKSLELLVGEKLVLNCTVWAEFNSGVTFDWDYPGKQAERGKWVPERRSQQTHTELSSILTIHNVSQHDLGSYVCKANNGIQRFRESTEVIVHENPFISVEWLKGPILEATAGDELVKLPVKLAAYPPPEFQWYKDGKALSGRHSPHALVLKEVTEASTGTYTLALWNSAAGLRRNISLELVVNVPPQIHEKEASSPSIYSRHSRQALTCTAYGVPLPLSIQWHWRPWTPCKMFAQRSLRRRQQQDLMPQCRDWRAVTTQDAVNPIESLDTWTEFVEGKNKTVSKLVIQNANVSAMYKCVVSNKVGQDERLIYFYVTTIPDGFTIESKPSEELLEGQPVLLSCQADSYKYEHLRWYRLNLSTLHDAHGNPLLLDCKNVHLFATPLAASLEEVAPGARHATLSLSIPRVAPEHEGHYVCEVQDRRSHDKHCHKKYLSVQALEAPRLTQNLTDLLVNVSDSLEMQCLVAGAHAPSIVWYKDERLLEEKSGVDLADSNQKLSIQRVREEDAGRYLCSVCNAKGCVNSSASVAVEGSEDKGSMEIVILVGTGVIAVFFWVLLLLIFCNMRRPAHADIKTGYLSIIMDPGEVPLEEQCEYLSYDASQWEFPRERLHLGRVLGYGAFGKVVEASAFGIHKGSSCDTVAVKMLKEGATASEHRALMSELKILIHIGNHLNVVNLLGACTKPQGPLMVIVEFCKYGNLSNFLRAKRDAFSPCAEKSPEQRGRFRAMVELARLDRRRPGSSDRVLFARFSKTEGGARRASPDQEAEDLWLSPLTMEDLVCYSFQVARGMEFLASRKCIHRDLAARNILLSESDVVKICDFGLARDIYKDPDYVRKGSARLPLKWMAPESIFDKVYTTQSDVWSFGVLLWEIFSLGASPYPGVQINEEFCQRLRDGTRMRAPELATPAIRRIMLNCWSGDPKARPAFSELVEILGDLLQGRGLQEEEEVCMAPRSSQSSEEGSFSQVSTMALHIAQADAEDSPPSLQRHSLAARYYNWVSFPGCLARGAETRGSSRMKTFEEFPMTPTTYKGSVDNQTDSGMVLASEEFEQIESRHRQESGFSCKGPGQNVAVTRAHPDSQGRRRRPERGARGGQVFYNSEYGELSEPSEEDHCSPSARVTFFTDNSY
Details: at 1 µM

{"Smiles Record": "Oc1cccc(-c2nc(-c3ccccc3)[nH]c2-c2ccncc2)c1", "System Tested": "Vascular endothelial growth factor receptor 3 (Homo sapiens) (UniProt P35916)", "inhibition [%]": 30.4}
{"Smiles Record": "Cc1ccc(Nc2ccnc(Nc3cccc(C(N)=O)c3)n2)cc1O", "System Tested": "Vascular endothelial growth factor receptor 3 (Homo sapiens) (UniProt P35916)", "inhibition [%]": 95}
{"Smiles Record": "CN(C)C(=O)O[C@@H]1CN[C@@H](C#Cc2cc3ncnc(Nc4ccc(OCc5cccc(F)c5)c(Cl)c4)c3s2)C1", "System Tested": "Vascular endothelial growth factor receptor 3 (Homo sapiens) (UniProt P35916)", "inhibition [%]": 0.49}
{"Smiles Record": "Cc1nc(-c2ccccc2)n2nc(NCCCN3CCOCC3)ncc12", "System Tested": "Vascular endothelial growth factor receptor 3 (Homo sapiens) (UniProt P35916)", "inhibition [%]": 2.24}

---

Target: Phosphorylase b kinase gamma catalytic chain, skeletal muscle/heart isoform (Homo sapiens);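 note: each value is a mean percent inhibition of PHKG1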
Settings: at 1 µM
Recorded measurements of inhibition, one per entry
Recorded Metric: inhibition (%)

{"Smiles Record": "COc1ccc(-c2nn3ncccc3c2-c2ccnc(Nc3cccc(C(F)(F)F)c3)n2)cc1", "System Tested": "Phosphorylase b kinase gamma catalytic chain, skeletal muscle/heart isoform (Homo sapiens)", "Recorded Metric": "inhibition", "Units": "%", "Recorded Result": 4.58}
{"Smiles Record": "NS(=O)(=O)c1cccc(-c2cc3ccncc3cc2OCc2ccccc2)c1", "System Tested": "Phosphorylase b kinase gamma catalytic chain, skeletal muscle/heart isoform (Homo sapiens)", "Recorded Metric": "inhibition", "Units": "%", "Recorded Result": 7.24}
{"Smiles Record": "COc1cccc(-n2ncc3c(N/N=C/c4ccc(C)cc4)ncnc32)c1", "System Tested": "Phosphorylase b kinase gamma catalytic chain, skeletal muscle/heart isoform (Homo sapiens)", "Recorded Metric": "inhibition", "Units": "%", "Recorded Result": 10}
{"Smiles Record": "O=C1Nc2ccccc2/C1=C/Nc1ccc2[nH]c(=O)[nH]c2c1", "System Tested": "Phosphorylase b kinase gamma catalytic chain, skeletal muscle/heart isoform (Homo sapiens)", "Recorded Metric": "inhibition", "Units": "%", "Recorded Result": 42.6}
{"Smiles Record": "Cc1ccc2c(-c3ccnc(Nc4ccc5c(c4)OCCO5)n3)c(-c3ccc(C(F)(F)F)cc3)nn2n1", "System Tested": "Phosphorylase b kinase gamma catalytic chain, skeletal muscle/heart isoform (Homo sapiens)", "Recorded Metric": "inhibition", "Units": "%", "Recorded Result": 1.99}
{"Smiles Record": "CN(c1ccc(NC(=O)Nc2ccc(OC(F)(F)F)cc2)cc1)c1ccnc(Nc2cccc(S(N)(=O)=O)c2)n1", "System Tested": "Phosphorylase b kinase gamma catalytic chain, skeletal muscle/heart isoform (Homo sapiens)", "Recorded Metric": "inhibition", "Units": "%", "Recorded Result": 9.58}
{"Smiles Record": "N#Cc1cccc(Nc2nccc(-c3cnn4ncccc34)n2)c1", "System Tested": "Phosphorylase b kinase gamma catalytic chain, skeletal muscle/heart isoform (Homo sapiens)", "Recorded Metric": "inhibition", "Units": "%", "Recorded Result": 58.3}

---

Target: Tyrosine-protein kinase ABL1 (Homo sapiens) (UniProt P00519)
Sequence (P00519 whole entry): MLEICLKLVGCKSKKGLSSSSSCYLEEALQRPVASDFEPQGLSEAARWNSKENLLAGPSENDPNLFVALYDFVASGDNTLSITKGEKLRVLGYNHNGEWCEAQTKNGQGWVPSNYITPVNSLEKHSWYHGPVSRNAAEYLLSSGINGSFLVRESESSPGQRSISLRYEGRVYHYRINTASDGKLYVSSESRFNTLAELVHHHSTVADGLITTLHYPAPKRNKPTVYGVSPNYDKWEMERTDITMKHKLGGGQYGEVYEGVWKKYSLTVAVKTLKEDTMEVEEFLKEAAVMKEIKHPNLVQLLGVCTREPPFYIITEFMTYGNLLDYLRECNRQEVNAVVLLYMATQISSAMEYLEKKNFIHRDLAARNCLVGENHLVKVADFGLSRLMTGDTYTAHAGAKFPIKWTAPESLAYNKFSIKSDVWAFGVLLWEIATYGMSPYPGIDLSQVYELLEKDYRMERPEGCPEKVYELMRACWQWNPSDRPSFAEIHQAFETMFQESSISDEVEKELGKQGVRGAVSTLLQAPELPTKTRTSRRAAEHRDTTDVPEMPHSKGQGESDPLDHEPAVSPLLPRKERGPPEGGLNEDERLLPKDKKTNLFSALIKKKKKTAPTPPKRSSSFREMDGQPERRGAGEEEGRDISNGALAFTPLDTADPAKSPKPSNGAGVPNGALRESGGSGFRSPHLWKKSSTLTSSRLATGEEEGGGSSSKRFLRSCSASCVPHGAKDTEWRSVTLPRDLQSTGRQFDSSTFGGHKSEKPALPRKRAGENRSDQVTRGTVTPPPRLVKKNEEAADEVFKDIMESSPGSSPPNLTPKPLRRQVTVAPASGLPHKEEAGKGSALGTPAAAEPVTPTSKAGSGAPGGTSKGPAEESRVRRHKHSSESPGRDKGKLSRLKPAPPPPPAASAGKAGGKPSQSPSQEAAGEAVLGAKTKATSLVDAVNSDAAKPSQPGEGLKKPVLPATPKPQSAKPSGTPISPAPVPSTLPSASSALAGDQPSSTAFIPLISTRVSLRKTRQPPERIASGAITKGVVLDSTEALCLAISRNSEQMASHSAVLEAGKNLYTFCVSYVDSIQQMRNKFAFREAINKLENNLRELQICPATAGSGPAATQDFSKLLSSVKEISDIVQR
Details: at 0.1 µM
Description: GSK_PKIS: ABL1 mean inhibition at 0.1 uM [Nanosyn]
Listed next: entries and their corresponding inhibition.
Recorded Metric: inhibition

{"Smiles Record": "COC(=O)c1ccc2c(c1)C(=Cc1cc(Br)c(O)c(Br)c1)C(=O)N2", "System Tested": "Tyrosine-protein kinase ABL1 (Homo sapiens) (UniProt P00519)", "Recorded Result": "7.83%"}
{"Smiles Record": "CN(C)C(=O)O[C@@H]1CN[C@@H](C#Cc2cc3ncnc(Nc4ccc(OCc5cccc(F)c5)c(Cl)c4)c3s2)C1", "System Tested": "Tyrosine-protein kinase ABL1 (Homo sapiens) (UniProt P00519)", "Recorded Result": "1.35%"}
{"Smiles Record": "FC(F)(F)c1ccc(-c2nn3ncccc3c2-c2ccnc(Nc3ccc4c(c3)OCCO4)n2)cc1", "System Tested": "Tyrosine-protein kinase ABL1 (Homo sapiens) (UniProt P00519)", "Recorded Result": "5.3%"}
{"Smiles Record": "O=S(=O)(CCOCc1ccc(-c2ccc3ncnc(Nc4ccc(OCc5cccc(F)c5)c(Cl)c4)c3c2)o1)c1ccccc1", "System Tested": "Tyrosine-protein kinase ABL1 (Homo sapiens) (UniProt P00519)", "Recorded Result": "2.88%"}
{"Smiles Record": "CN(C)c1cc2c(Nc3ccc4c(cnn4Cc4ccccc4)c3)ncnc2cn1", "System Tested": "Tyrosine-protein kinase ABL1 (Homo sapiens) (UniProt P00519)", "Recorded Result": "2.46%"}
{"Smiles Record": "COc1cc2ncnc(Nc3ccc4c(cnn4Cc4ccccc4)c3)c2cc1OC", "System Tested": "Tyrosine-protein kinase ABL1 (Homo sapiens) (UniProt P00519)", "Recorded Result": "3.47%"}
{"Smiles Record": "COC(=O)c1cncc(/C=C/c2c(C)cc(O)cc2C)c1", "System Tested": "Tyrosine-protein kinase ABL1 (Homo sapiens) (UniProt P00519)", "Recorded Result": "11%"}
{"Smiles Record": "Cc1cc(O)cc(C)c1/C=C/c1cncc(C(=O)N(C)C)c1", "System Tested": "Tyrosine-protein kinase ABL1 (Homo sapiens) (UniProt P00519)", "Recorded Result": "6.26%"}
{"Smiles Record": "COc1cc2ncnc(Nc3ccc(C)c(O)c3)c2cc1OC", "System Tested": "Tyrosine-protein kinase ABL1 (Homo sapiens) (UniProt P00519)", "Recorded Result": "36.1%"}
{"Smiles Record": "Nc1nccc(C#Cc2cncnc2Nc2ccc(OCc3cccc(F)c3)c(Cl)c2)n1", "System Tested": "Tyrosine-protein kinase ABL1 (Homo sapiens) (UniProt P00519)", "Recorded Result": "4.16%"}
{"Smiles Record": "CN(c1ccc(NC(=O)Nc2ccc(OC(F)(F)F)cc2)cc1)c1ccnc(Nc2cccc(S(N)(=O)=O)c2)n1", "System Tested": "Tyrosine-protein kinase ABL1 (Homo sapiens) (UniProt P00519)", "Recorded Result": "14.3%"}
{"Smiles Record": "CCOc1nccc2c1nc(-c1nonc1N)n2CC", "System Tested": "Tyrosine-protein kinase ABL1 (Homo sapiens) (UniProt P00519)", "Recorded Result": "4.96%"}
{"Smiles Record": "Cc1ccc2c(-c3ccnc(Nc4cccc(C(F)(F)F)c4)n3)c(-c3ccccc3)nn2n1", "System Tested": "Tyrosine-protein kinase ABL1 (Homo sapiens) (UniProt P00519)", "Recorded Result": "7.07%"}
{"Smiles Record": "Cc1cc(Cl)cc2c1NC(=O)C2=NNc1ccc(S(N)(=O)=O)cc1", "System Tested": "Tyrosine-protein kinase ABL1 (Homo sapiens) (UniProt P00519)", "Recorded Result": "2.11%"}
{"Smiles Record": "NC(=O)c1sc(-n2cnc3ccccc32)cc1OCc1ccccc1Br", "System Tested": "Tyrosine-protein kinase ABL1 (Homo sapiens) (UniProt P00519)", "Recorded Result": "4.27%"}
{"Smiles Record": "NS(=O)(=O)c1ccc(N/N=C2\\C(=O)Nc3ccc(Cl)cc32)cc1", "System Tested": "Tyrosine-protein kinase ABL1 (Homo sapiens) (UniProt P00519)", "Recorded Result": "2.16%"}

---

Listed here: items and their measured inhibition.
Test system: Proto-oncogene tyrosine-protein kinase receptor Ret (Homo sapiens), P07949 [V804L]
Sequence (P07949 whole entry V804L): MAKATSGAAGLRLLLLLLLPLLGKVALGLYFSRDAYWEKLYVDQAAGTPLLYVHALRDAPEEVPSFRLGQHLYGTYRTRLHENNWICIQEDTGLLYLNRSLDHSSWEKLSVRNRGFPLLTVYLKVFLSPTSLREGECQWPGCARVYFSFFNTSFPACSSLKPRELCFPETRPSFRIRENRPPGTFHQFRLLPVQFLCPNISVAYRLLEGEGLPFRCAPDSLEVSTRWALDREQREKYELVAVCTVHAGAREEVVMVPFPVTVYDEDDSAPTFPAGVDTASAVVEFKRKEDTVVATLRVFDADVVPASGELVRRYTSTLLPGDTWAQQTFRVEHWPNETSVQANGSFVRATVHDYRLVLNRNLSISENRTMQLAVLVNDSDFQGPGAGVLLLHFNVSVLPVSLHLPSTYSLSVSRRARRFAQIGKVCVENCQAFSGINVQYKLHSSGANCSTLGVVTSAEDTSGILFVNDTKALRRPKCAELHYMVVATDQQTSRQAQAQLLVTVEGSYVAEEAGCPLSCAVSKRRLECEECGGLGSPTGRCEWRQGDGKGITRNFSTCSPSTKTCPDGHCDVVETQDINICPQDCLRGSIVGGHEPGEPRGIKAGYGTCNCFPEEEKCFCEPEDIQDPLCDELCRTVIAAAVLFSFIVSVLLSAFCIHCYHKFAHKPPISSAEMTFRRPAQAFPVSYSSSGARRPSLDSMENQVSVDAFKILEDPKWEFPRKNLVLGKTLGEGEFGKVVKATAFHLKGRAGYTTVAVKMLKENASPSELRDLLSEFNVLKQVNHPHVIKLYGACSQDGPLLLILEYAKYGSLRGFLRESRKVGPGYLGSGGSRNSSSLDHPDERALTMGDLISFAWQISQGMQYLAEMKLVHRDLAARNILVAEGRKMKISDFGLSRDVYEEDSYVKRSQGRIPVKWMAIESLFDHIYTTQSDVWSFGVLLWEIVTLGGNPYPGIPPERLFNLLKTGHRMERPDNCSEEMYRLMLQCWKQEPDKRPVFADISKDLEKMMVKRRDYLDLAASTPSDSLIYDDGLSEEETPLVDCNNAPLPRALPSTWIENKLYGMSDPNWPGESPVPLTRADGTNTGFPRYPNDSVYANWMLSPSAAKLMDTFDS
Details: at 0.1 µM

{"Compound": "CCCN1CCCC(c2ccc(Nc3nc(Nc4cc(F)ccc4C(N)=O)c4cc[nH]c4n3)c(OC)c2)C1 (centres undefined)", "Units": "%", "inhibition": 10.1}
{"Compound": "Cc1ccc(Nc2ccnc(Nc3cccc(C(N)=O)c3)n2)cc1O", "Units": "%", "inhibition": 11.7}
{"Compound": "C[C@@H](Oc1cc(-n2cnc3ccc(OCC4CCN(C)CC4)cc32)sc1C(N)=O)c1ccccc1C(F)(F)F", "Units": "%", "inhibition": 2.09}
{"Compound": "COc1cccc(-n2ncc3c(N/N=C/c4ccc(S(C)(=O)=O)cc4)ncnc32)c1", "Units": "%", "inhibition": 4.8}
{"Compound": "CCS(=O)(=O)c1ccc(OC)c(Nc2ncc(-c3cccc(OC)c3)o2)c1", "Units": "%", "inhibition": 7.11}
{"Compound": "Nc1ccc(C#Cc2cncnc2Nc2ccc(OCc3cccc(F)c3)c(Cl)c2)cc1", "Units": "%", "inhibition": 9.98}
{"Compound": "CC(C)c1ccc2c(c1)NC(=O)/C2=N/Nc1ccc(S(N)(=O)=O)cc1", "Units": "%", "inhibition": 1.58}
{"Compound": "Cc1ccc2c(-c3ccnc(Nc4cccc(C(F)(F)F)c4)n3)c(-c3ccccc3)nn2n1", "Units": "%", "inhibition": 2.52}
{"Compound": "Cc1cc(Cl)cc2c1NC(=O)C2=NNc1ccc(S(N)(=O)=O)cc1", "Units": "%", "inhibition": 3.83}
{"Compound": "CC(C)c1ccc(Nc2nccc(-c3cnn4ncccc34)n2)cc1", "Units": "%", "inhibition": 4.06}
{"Compound": "CCOc1nccc2c1nc(-c1nonc1N)n2CC", "Units": "%", "inhibition": 8.5}
{"Compound": "COc1ccc2ncnc(Nc3ccc(OCc4ccccc4)cc3)c2c1", "Units": "%", "inhibition": 0.54}
{"Compound": "CCn1c(-c2nonc2N)nc2ccc(F)cc21", "Units": "%", "inhibition": 3.33}
{"Compound": "Cc1ccc2c(c1)/C(=N/Nc1ccc(S(N)(=O)=O)cc1)C(=O)N2", "Units": "%", "inhibition": 7.64}
{"Compound": "COc1cc2ncnc(Nc3ccc4c(cnn4Cc4ccccc4)c3)c2cc1OC", "Units": "%", "inhibition": 3.73}
{"Compound": "Cc1cc(-c2ccccn2)cc(C)c1/C=C/c1cncc(-c2nn[nH]n2)c1", "Units": "%", "inhibition": 3.85}
{"Compound": "COC(=O)c1cncc(/C=C/c2c(C)cc(O)cc2C)c1", "Units": "%", "inhibition": 2.74}
{"Compound": "Nc1nccc(-c2c(-c3ccc(F)cc3)nn3cc(C(F)(F)F)ccc23)n1", "Units": "%", "inhibition": 0.95}
{"Compound": "Oc1cccc(-c2nc(-c3ccccc3)[nH]c2-c2ccncc2)c1", "Units": "%", "inhibition": 4.04}
{"Compound": "CN(C)CCCn1c(-c2nonc2N)nc2cnccc21", "Units": "%", "inhibition": 1.93}
{"Compound": "Nc1nccc(C#Cc2cncnc2Nc2ccc(OCc3cccc(F)c3)c(Cl)c2)n1", "Units": "%", "inhibition": 10.1}
{"Compound": "NS(=O)(=O)c1cccc(-c2cc3ccncc3cc2OCc2ccccc2)c1", "Units": "%", "inhibition": 6.02}
{"Compound": "CCS(=O)(=O)c1ccc(OC)c(Nc2nccc(N(C)c3ccc4c(C)n[nH]c4c3)n2)c1", "Units": "%", "inhibition": 4.04}
{"Compound": "ON=C1CCc2cc(-c3nc(C4CCNCC4)[nH]c3-c3ccncc3)ccc21", "Units": "%", "inhibition": 6.18}
{"Compound": "Cc1ccc(C(=O)NC2CC2)cc1-c1ccc2[nH]ncc2c1", "Units": "%", "inhibition": -1.65}
{"Compound": "COc1cc(Nc2nccc(-c3cnn4ncccc34)n2)cc(OC)c1", "Units": "%", "inhibition": 6.17}
{"Compound": "NS(=O)(=O)c1ccc(N/N=C2\\C(=O)Nc3ccc(Cl)cc32)cc1", "Units": "%", "inhibition": 8.27}
{"Compound": "NC(=O)c1cccc(Nc2nccc(Nc3cccc(F)c3)n2)c1", "Units": "%", "inhibition": 1.12}
{"Compound": "CN(C)c1cc2c(Nc3ccc4c(cnn4Cc4ccccc4)c3)ncnc2cn1", "Units": "%", "inhibition": 3.56}
{"Compound": "[O-][S+]1CCN(Cc2ccc(-c3ccc4ncnc(Nc5ccc(OCc6ccccc6)c(Cl)c5)c4c3)o2)CC1", "Units": "%", "inhibition": 2.69}
{"Compound": "OCc1ccc(-c2nc(-c3ccccn3)c(-c3ccc4c(c3)OCO4)[nH]2)cc1", "Units": "%", "inhibition": 4.41}
{"Compound": "COc1ccc(-c2nn3ncccc3c2-c2ccnc(Nc3cccc(C(F)(F)F)c3)n2)cc1", "Units": "%", "inhibition": 2.06}
{"Compound": "CCn1c(-c2nonc2N)nc2c(C#CC(C)(C)O)nc(OCCNC)cc21", "Units": "%", "inhibition": 2.4}
{"Compound": "COc1cccc(-n2nc(C)c3c(N/N=C(\\C)c4ccncc4)ncnc32)c1", "Units": "%", "inhibition": 1.04}

Reference source for all entries: ChEMBL document CHEMBL1961873
